molecular target: MAPK14 (human) (UniProt Q16539); assay: Inhibition of MAPK14 Kinase Activity by PHAS-I Assay
Sequence (Q16539 whole entry, looked up): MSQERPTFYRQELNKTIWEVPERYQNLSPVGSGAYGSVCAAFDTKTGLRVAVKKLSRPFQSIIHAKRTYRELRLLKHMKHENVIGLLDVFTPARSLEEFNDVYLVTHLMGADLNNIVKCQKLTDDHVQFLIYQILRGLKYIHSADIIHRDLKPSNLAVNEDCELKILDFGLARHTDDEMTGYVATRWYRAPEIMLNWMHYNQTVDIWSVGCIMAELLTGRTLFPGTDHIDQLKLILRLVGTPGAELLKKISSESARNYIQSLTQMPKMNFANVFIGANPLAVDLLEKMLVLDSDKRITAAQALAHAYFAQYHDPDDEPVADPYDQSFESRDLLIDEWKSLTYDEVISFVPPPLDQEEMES
measure name: IC50

Worked set:
N#Cc1ccc(S(=O)(=O)NCCCc2[nH]nc(-c3ccc(F)cc3)c2-c2ccncc2)cc1 < 100 nM
COc1ccc(Cl)cc1S(=O)(=O)NCCCc1[nH]nc(-c2ccc(F)cc2)c1-c1ccncc1 < 100 nM

Consider the record given below.
Request: Quick check: IC50 of CCOC(=O)N1CCC(Nc2n[nH]c(-c3ccc(Cl)cc3)c2-c2ccncc2)CC1 ?
Result: > 100000 nM

###

biological target: MAPK14 (human); assay: Inhibition of MAPK14 Kinase Activity by PHAS-I Assay; conditions: concentration not given here
measure name: inhibition (%)
Numbers only, in %.

Look over these answered cases.
Cc1c(-c2ccncc2)c(-c2ccc(F)cc2)nn1CC(=O)Nc1cccc(SC(F)(F)F)c1 82
CCCCCCOc1ccc(NC(=O)Cn2nc(-c3ccc(F)cc3)c(-c3ccncc3)c2C)cc1 80
CCCOC(=O)NCCc1[nH]nc(-c2ccc(F)cc2)c1-c1ccncc1 78
O=S(=O)(NCCCc1[nH]nc(-c2ccc(F)cc2)c1-c1ccncc1)c1ccc(F)cc1 78

Request: # lookup: inhibition of CC(=O)N1CCN(C(=O)Cn2nc(-c3ccc(F)cc3)c(-c3ccncc3)c2C)CC1
Result: 81
